Molecular target: T1, human TIGIT protein (human, UniProt Q495A1 22-141, limits assumed)
T1 construct: Recombinant protein (Genentech) used in ELISA screening and as SPR analyte; also called TIGIT antigen
T1 sequence: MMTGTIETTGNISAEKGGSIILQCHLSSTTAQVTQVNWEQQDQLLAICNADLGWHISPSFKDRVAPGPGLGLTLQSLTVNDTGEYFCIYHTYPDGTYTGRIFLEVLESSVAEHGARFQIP
Assay: SPR, monovalent affinity
assayEndpoint: pKd
The value called pKd is obtained by taking minus log10 of the concentration in mol/L.

Query (binder): h15C8.L1H1 (antibody, V domains shown, First humanized version; FR/HVR pieces in order; also called h1.15C8.L1H1) VH: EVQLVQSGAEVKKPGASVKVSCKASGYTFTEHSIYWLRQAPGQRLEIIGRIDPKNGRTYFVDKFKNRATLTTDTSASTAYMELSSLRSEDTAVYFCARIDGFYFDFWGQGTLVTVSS VL: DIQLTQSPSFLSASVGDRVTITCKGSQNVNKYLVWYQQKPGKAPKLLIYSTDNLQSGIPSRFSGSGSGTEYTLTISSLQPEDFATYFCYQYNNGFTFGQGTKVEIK ; field requested: pKd
9.24

Consider the binder shown here: 7.4A3 (antibody, V domains shown, OMT rat-derived human antibody; also called 7.4A3.Q1.C96) VH: QVQLVQSGSDLKKPGASVRVSCKASGYTFTSYPMNWVRQAPGHGLEWMGWINTNTGNPTYVQGFTGRFVFSLDTSVNTAYLQISSLKAEDTAVYFCARTGGHTYDSYAFDVWGQGTMVTVSS VL: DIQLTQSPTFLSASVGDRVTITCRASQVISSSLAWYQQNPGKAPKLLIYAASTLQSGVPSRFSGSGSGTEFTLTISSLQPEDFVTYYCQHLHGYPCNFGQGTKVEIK What is its recorded pKd?
8.44

Data request, read-out pKd, for rat6B2 (antibody, V domains shown, SD rat-derived; rat V domains as FR/HVR pieces; also called 1.6B2; Chimeric 1.6B2) VH: QVSLKESGPGILQPSHTLSLTCSFSGFSLSTYGMGVSWIRQPSEKGLEWLASIWWNGNTYYNPSLKSRLTVSKDASNDQAFLNVTSVDTTDTATYYCAHTGGAVITWFAYWGQGTLVTVSS VL: NIVMTQSPKSMSISVGDRVTMNCKASQSVGKNIAWYQQKPGQSPKLLIYYASNRYTGVPDRFTGGGSGTDFTLTINTVQAEDAAFFYCQHIYNSPYPFGTGTKLEIK
10.46

So what does the record say about pKd for rat15C8 (antibody, V domains shown, SD rat-derived; rat V domains as FR/HVR pieces; also called 1.15C8; Chimeric 1.15C8) VH: EVQLQQSGPELQRPGASVKLSCKASGYTFTEHSIYWLKQRPKQSLEIIGRIDPKNGRTYFVDKFKNRATLTTNTSSNTAYMQLSSLTSEDTAIYFCARIDGFYFDFWGQGVMVTASS VL: NIHLTQSPSLLSASVGDRVTLSCKGSQNVNKYLVWYQQKLGEAPKLLIYSTDNLQSGIPSRFSGSGSGTDYTLTISSLQPEDAATYFCYQYNNGFTFGSGTKLEIK ?
10.47
